- Assay overview: yeast growth modulation, basal conditions, primary screen, YJM789 clinical isolate, OD600, 24 h (AID 1089);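 note: growth of clinical yeast isolate S. cerevisiae YJM 789 seeded 1000 cells per well; test concentration not given here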
- Condition notes: S. cerevisiae YJM789 growth, higher = more signal, called active from +8 up or from −8 down
The entries below come with measured z-score values attached.

[
  {
    "Compound": "O=C1C2=CC[C@H]3C(=O)N(C[C@@H]4CCCO4)C(=O)[C@H]3[C@H]2[C@H](O)[C@@H]2O[C@H]12",
    "z-score": 0.0382
  },
  {
    "Compound": "CC#CCOCCC=C1c2ccccc2[C@@H](OC)[C@@H]1C",
    "z-score": -0.0953
  },
  {
    "Compound": "CCOC(=O)CCN1C(=O)[C@H]2[C@H]3[C@H](O)[C@H](O)CC(=O)[C@@H]3CC[C@H]2C1=O",
    "z-score": -0.0366
  },
  {
    "Compound": "CO[C@@H](C(C)C)[C@@H](C)C1OC(=O)CC1O (stereo partly drawn)",
    "z-score": 0.0031
  },
  {
    "Compound": "O=C1[C@H]2[C@H]3[C@H](O)[C@H](O)CC(=NO[C@@H]4O[C@H](CO)[C@@H](O)[C@H](O)[C@H]4O)[C@@H]3CC[C@H]2C(=O)N1C[C@@H]1CCCO1",
    "z-score": 0.57
  },
  {
    "Compound": "CO[C@H]1COC(=O)CC=C[C@@H](C)COC(=O)[C@H]2CCCN2C(=O)CC=C[C@H]1C",
    "z-score": 0.591
  },
  {
    "Compound": "COc1ccc(OC[C@H]2CN3[C@@H](CC[C@@H](C)[C@@H]3c3ccc(Br)cc3)C(=O)O2)cc1",
    "z-score": -0.313
  },
  {
    "Compound": "CCCNC(=O)OC[C@H]1O[C@H](CCON=C2c3cc(OC)ccc3O[C@H](c3cccc(OC)c3)[C@H]2O)C=C[C@@H]1Oc1ccc(OC)cc1",
    "z-score": -0.409
  }
]

Recorded values, source PubChem BioAssay.
